# Test System: T1, cyno FcRn/b2M (cyno, UniProt Q8SPV9 24-297; Q8SPW0 21-119, biotinylated)
# T1 construct: bought recombinant biotinylated protein (Immunitrack ITF05 or ACRO FCM-C82W5); also called cFcRn; cFcRn/cb2M
# T1 sequence (Q8SPV9 24-297 limits assumed, chain 1 of 2): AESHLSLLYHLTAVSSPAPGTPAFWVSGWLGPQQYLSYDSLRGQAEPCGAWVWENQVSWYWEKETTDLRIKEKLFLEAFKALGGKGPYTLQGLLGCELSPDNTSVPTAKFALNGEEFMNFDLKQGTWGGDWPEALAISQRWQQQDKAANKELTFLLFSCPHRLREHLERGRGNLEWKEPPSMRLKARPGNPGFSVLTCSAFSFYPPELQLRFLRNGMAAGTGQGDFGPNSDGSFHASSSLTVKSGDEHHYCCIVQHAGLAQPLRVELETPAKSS
# T1 sequence (Q8SPW0 21-119 limits assumed, chain 2 of 2): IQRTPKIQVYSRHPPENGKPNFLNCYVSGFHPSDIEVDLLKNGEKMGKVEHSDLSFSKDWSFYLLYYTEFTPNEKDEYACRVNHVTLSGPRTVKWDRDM
# Test Details: SPR off-rate; pH 7.4 vs pH 6.0;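 note: surface plasmon resonance with diluted periplasmic extracts flowed over ligand surfaces, 120 s association and 600–3600 s dissociation at 25 °C, running buffer containing 150 mM NaCl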
Outcome Measure: kd ratio pH 7.4/6.0

The following binders have reported results that may help.
Enquiry: Tell me the measured kd ratio pH 7.4/6.0 of T0263018B11 Y32V (VHH, name in Kabat numbering, FLAG3-His6 tagged) VHH: EVQLVESGGGVVQPGGSLRLSCAASGFTFSSVAMYWVRQAPGKGLEWVSAISSGGGSTDYADSVKGRFTISRDNSKNTLYLQMNSLRPEDTALYYCAADTLYTSLTWYSYWGQGTLVTVSS , please.
Return: 60

Enquiry: # get_value(readout='kd ratio pH 7.4/6.0', item= T0263018B11 T57S (VHH, name in Kabat numbering, FLAG3-His6 tagged) VHH: EVQLVESGGGVVQPGGSLRLSCAASGFTFSSYAMYWVRQAPGKGLEWVSAISSGGGSSDYADSVKGRFTISRDNSKNTLYLQMNSLRPEDTALYYCAADTLYTSLTWYSYWGQGTLVTVSS )
Return: 41

Enquiry: If you can, please state the reported kd ratio pH 7.4/6.0 value of T0263018B11 A33T (VHH, name in Kabat numbering, FLAG3-His6 tagged) VHH: EVQLVESGGGVVQPGGSLRLSCAASGFTFSSYTMYWVRQAPGKGLEWVSAISSGGGSTDYADSVKGRFTISRDNSKNTLYLQMNSLRPEDTALYYCAADTLYTSLTWYSYWGQGTLVTVSS .
Return: 54

API: the following record is the query input.
Enquiry: Data request, read-out kd ratio pH 7.4/6.0, for T0263018B11 F29S (VHH, name in Kabat numbering, FLAG3-His6 tagged) VHH: EVQLVESGGGVVQPGGSLRLSCAASGFTSSSYAMYWVRQAPGKGLEWVSAISSGGGSTDYADSVKGRFTISRDNSKNTLYLQMNSLRPEDTALYYCAADTLYTSLTWYSYWGQGTLVTVSS
Return: 45
